- Tested on: HEK-293T
- procedure_summary: Multiplex assay against HEK293T
- Format: toxicity, cell-based
- condition_parameters: human, 12 h, 10 µM, compound concentration 10 uM, replicate 1
recorded_metric: Total Cell Count
One number for each entry.

Sample answers from the record:
Quote Total Cell Count reported for `C[C@@H]1CC(=O)Nc2cccc(-c3ccc4c(c3)c(-c3cnn(C)c3)nn4C)c2N1` please.
384

Quote Total Cell Count reported for `Cc1cc(O)c(-c2ccc([C@@H](C)CN(C)C)cc2)c2c1[nH]c(=O)c1sccc12` please.
268

Now let's try a different one.
Quote Total Cell Count reported for `COC(c1ccccc1)(c1ccccc1)[C@H](Oc1nc(C)cc(C)n1)C(=O)O` please.
383

###

- System: U2OS
- procedure_summary: Multiplex assay against U2OS
- Assay type: toxicity, cell-based
- condition_parameters: human, 48 h, 10 µM, compound concentration 10 uM, replicate 2
recorded_metric: Total Cell Count
Give bare numbers.

Quote Total Cell Count reported for `C[C@@H]1CC(=O)Nc2cccc(-c3ccc4c(c3)c(-c3cnn(C)c3)nn4C)c2N1` please.
149

Quote Total Cell Count reported for `CCCCC[C@H](O)/C=C/[C@H]1[C@H](O)CC(=O)[C@@H]1CCCCCCC(=O)O` please.
165

Quote Total Cell Count reported for `CC(C)(C)c1ccc(CSc2cnn(C(C)(C)C)c(=O)c2Cl)cc1` please.
191

Quote Total Cell Count reported for CN1C[C@H](C(=O)N[C@]2(C)O[C@@]3(O)[C@@H]4CCCN4C(=O)[C@H](Cc4ccccc4)N3C2=O)C[C@@H]2c3cccc4[nH]cc(c34)C[C@H]21.CS(=O)(=O)O [DIHYDROERGOTAMINE MESYLATE] please.
217

Quote Total Cell Count reported for `CCCCCCNC(=O)Nc1ccc(S(=O)(=O)Nc2ccc(CCNC[C@H](O)COc3ccc(O)cc3)cc2)cc1` please.
242

For every record below, what is its Total Cell Count?
1. S=C(NCCCc1c[nH]cn1)NCCCN(Cc1ccc(Cl)c(Cl)c1)c1ccc(Br)cn1
2. Cc1cc(NC(=O)NCCN2CCC(O)(Cc3ccccc3)CC2)c2ccccc2n1
3. CC(C)C[C@H](CO)Nc1nc(S[C@@H](C)c2ccccc2)nc2nc(N)sc12
4. N[C@](CC1c2ccccc2Oc2ccccc21)(C(=O)O)[C@H]1C[C@@H]1C(=O)O

1. 105
2. 180
3. 218
4. 238

For every record below, what is its Total Cell Count?
1. CSc1nc(NC2CCCC2)c([N+](=O)[O-])c(NC2CCCC2)n1
2. CN1CCN(c2ccc(Nc3c4ccccc4nc4ccccc34)cc2)CC1.Cl.Cl.O
3. Cc1cc(-c2ccc3c(c2)CC[C@H]3N2CC3(CCN(C(=O)Cc4cn5cc(C)sc5n4)CC3)C2)ncn1

1. 231
2. 173
3. 217

For every record below, what is its Total Cell Count?
1. COC(c1ccccc1)(c1ccccc1)[C@H](Oc1nc(C)cc(C)n1)C(=O)O
2. Nc1nc(-c2ccco2)c2cnn(Cc3ccccc3F)c2n1
3. Cc1cc(=O)n(C)c2cc(N3C(=O)CC[C@H](NS(=O)(=O)CC(C)C)[C@H]3c3ccc(Cl)cc3)ccc12
4. COc1cc2nc(N3CCN(C(=O)COc4c(OC)cccc4C(C)C)CC3)nc(N)c2cc1OC.Cl.Cl
5. CCn1c(-c2nc3cc(C(=O)N4CCCC(N)C4)ccc3n2C)cc2ccccc21.Cl (configuration not stated)

[174, 196, 120, 180, 173]

Values from ChEMBL document CHEMBL5058577
